- test.target: telomerase (Homo sapiens, UniProt O14746)
- procedure.details: Direct telomerase assay in the absence or presence of POT1-TPP1 (processivity R1/2)
- Type: biochemical
- Design: made in house; POT1: baculovirus-infected Sf9; TPP1-N: E. coli BL21(DE3) pLysS
- condition.context: 500 nM POT1 and 500 nM TPP1; analog substituted for its natural dNTP, other dNTPs at cellular concentration; Mean
- Protocol: Next we tested whether the telomerase processivity factor POT1–TPP1 modulates modified dNTP inhibition of telomerase. POT1 binds to the telomeric ssDNA overhang, requiring the minimum sequence of 5′-[…]-3′[38]. […] The processivity was calculated as described[40],[67]. […] The “percent left behind” (%LB) was calculated for each product band by summing the counts for that product band and for every product band below (shorter products), divided by the total counts for the lane, and then multiplied by 100. […]
Recorded Processivity R 1/2, one value per entry.
Lab note: jot down the number only; don't add units.

molecule: Nc1nc(O)nc2c1ncn2C1CC(O)C(COP(=O)(O)OP(=O)(O)OP(=O)(O)O)O1 (stereo not drawn)
Processivity R 1/2: 2.3
--
molecule: Nc1nc2c([nH]c(=O)n2C2CC(O)C(COP(=O)(O)OP(=O)(O)OP(=O)(O)O)O2)c(=O)[nH]1 (stereo not drawn)
Processivity R 1/2: 0.00
--
molecule: Nc1nc2c(ncn2C2CC(O)C(COP(=O)(O)OP(=O)(O)OP(=O)(O)O)O2)c(=S)[nH]1 (stereo not drawn)
Processivity R 1/2: 0.00
--
molecule: Nc1ncnc2c1[nH]c(=O)n2C1CC(O)C(COP(=O)(O)OP(=O)(O)OP(=O)(O)O)O1 (stereo not drawn)
Processivity R 1/2: 1.31
--
molecule: O=c1[nH]cnc2c1ncn2C1CCC(COP(=O)(O)OP(=O)(O)OP(=O)(O)O)O1 (stereo not drawn)
Processivity R 1/2: 0.00

Shift focus to the following entry.
// query Determine from records and report Processivity R 1/2 for `Cc1cn([C@H]2C[C@H](N=[N+]=[N-])[C@@H](CO[P@](=O)(O)O[P@](=O)(O)OP(=O)(O)O)O2)c(=O)[nH]c1=O`
// result 0.00

Reference source: paper PMC7576608
